Data origin: patent US10214546B2

biological target: BTK enzyme (recombinant full-length BTK, hBTK) (Homo sapiens (Human), UniProt Q06187); experiment: BTK enzymatic activity LANCE TR-FRET assay; type: biochemical; conditions: 50 pM hBTK, 25 μM ATP, 2 μM biotin-A5-peptide; compound range 1 μM to 0.017 nM; read-out: BTK binding IC50
Sequence (Q06187 whole entry): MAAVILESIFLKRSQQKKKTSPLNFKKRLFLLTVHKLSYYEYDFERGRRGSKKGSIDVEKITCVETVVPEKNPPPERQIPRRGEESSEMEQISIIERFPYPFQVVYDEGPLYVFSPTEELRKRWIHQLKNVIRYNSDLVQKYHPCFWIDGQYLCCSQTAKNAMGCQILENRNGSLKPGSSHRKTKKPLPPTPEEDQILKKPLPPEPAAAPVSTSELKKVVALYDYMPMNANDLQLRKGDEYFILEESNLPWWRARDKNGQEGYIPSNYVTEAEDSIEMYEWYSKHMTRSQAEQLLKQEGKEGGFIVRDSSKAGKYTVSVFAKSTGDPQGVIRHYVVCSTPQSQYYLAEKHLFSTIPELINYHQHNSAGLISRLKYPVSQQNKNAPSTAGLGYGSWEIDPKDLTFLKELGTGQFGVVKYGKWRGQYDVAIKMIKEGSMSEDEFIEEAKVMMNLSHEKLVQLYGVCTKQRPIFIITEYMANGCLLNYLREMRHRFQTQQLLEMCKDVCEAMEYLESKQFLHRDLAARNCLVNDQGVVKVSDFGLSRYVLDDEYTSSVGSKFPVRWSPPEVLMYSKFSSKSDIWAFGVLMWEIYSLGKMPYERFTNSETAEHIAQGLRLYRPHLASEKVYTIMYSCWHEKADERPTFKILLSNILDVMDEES
Measurement name: IC50 (nM)

[
  {
    "Compound": "C[C@@](O)(c1ccc(-c2nc([C@@H]3CC[C@H]4CCC(=O)N4C3)n3ccnc(N)c23)cc1)c1cccc(-c2ccccc2)c1 [Example 59]",
    "IC50 / nM": 0.93
  },
  {
    "Compound": "Nc1nccn2c([C@@H]3CC[C@H]4CCC(=O)N4C3)nc(-c3ccc(C(O)(c4ccc(F)cc4)C(F)(F)F)cc3)c12 (stereo partly drawn) [Example 32]",
    "IC50 / nM": 161
  },
  {
    "Compound": "Nc1ncc(Cl)n2c([C@@H]3CC[C@H]4CCC(=O)N4C3)nc(-c3ccc(C(O)c4cc(C(F)(F)F)ccc4F)cc3)c12 (stereo partly drawn) [Example 129]",
    "IC50 / nM": 12.2
  }
]

A: C[C@](O)(c1ccc(-c2nc([C@@H]3CC[C@H]4CCC(=O)N4C3)n3ccnc(N)c23)cc1)c1cccc(Cl)c1 [Example 41]
B: CC(O)(c1ccccc1)c1ccc(-c2nc([C@@H]3CC[C@H]4CCC(=O)N4C3)n3ccnc(N)c23)c(F)c1 (stereo partly drawn) [Example 24]
C: CC1(C)C[C@@H]2CC[C@@H](c3nc(-c4ccc(C(C)(O)c5cccc(C(F)(F)F)c5)cc4F)c4c(N)nccn34)CN2C1=O (stereo partly drawn) [Example 197]
Query: Sort the 3 compounds by IC50; largest first, smallest last. Put the labels in the requested order and list them out.
Response: A, B, C

---

target: BTK enzyme (recombinant full-length BTK, hBTK) (Homo sapiens (Human)); assay: BTK enzymatic activity LANCE TR-FRET assay; conditions: 50 pM hBTK, 25 μM ATP, 2 μM biotin-A5-peptide; compound range 1 μM to 0.017 nM; read-out: BTK binding IC50
Measurement name: IC50 (nM)

Examples from the recorded data:
[
  {
    "Compound": "Nc1nccn2c([C@@H]3CC[C@H]4CCC(=O)N4C3)nc(-c3ccc(C(O)(c4ccccc4)C(F)(F)F)cc3)c12 (stereo partly shown)",
    "Unit of measurement": "nM",
    "IC50": 3.4
  },
  {
    "Compound": "C[C@@](O)(c1cccc(C(F)(F)F)c1)c1ccc(-c2nc([C@@H]3CC[C@H]4CCC(=O)N4C3)n3ccnc(N)c23)c(C(F)F)c1",
    "Unit of measurement": "nM",
    "IC50": 808
  },
  {
    "Compound": "C[C@@](O)(c1ccc(-c2nc([C@@H]3CC[C@H]4C(C(F)(F)F)CC(=O)N4C3)n3ccnc(N)c23)cc1)c1cccc(C(F)(F)F)c1 (stereo partly shown) [Example 180]",
    "Unit of measurement": "nM",
    "IC50": 4.2
  },
  {
    "Compound": "C[C@](O)(c1ccc(-c2nc([C@@H]3CC[C@H]4CCC(=O)N4C3)n3ccnc(N)c23)cc1)c1cccc(C(F)F)c1",
    "Unit of measurement": "nM",
    "IC50": 30.4
  },
  {
    "Compound": "C[C@](O)(c1ccc(-c2nc([C@@H]3CC[C@H]4CCC(=O)N4C3)n3c(Cl)cnc(N)c23)cc1)c1cccc(CC(F)(F)F)c1",
    "Unit of measurement": "nM",
    "IC50": 2.7
  }
]

a: C[C@@](O)(c1ccc(-c2nc([C@@H]3CC[C@H]4CCC(=O)N4C3)n3c(Cl)cnc(N)c23)cc1)c1cccc(C(F)F)c1
b: Nc1nccn2c([C@@H]3CC[C@H]4CCC(=O)N4C3)nc(-c3ccc(C(O)c4cc(C(F)(F)F)ccc4F)cc3)c12 (stereo partly shown) [Example 125]
c: CC1(C)C[C@@H]2CC[C@@H](c3nc(-c4ccc(C(C)(O)c5cccc(C(F)F)c5)cc4F)c4c(N)nccn34)CN2C1=O (stereo partly shown) [Example 201]
Query: Write the entries in order, lowest recorded IC50 first. Put the labels in the requested order and list them out.
Response: a, c, b
(a: 0.14 nM, c: 42.2 nM, b: 824 nM)

a: Cc1ccccc1[C@@](C)(O)c1ccc(-c2nc([C@@H]3CC[C@H]4CCC(=O)N4C3)n3ccnc(N)c23)cc1
b: C[C@@](O)(c1ccc(-c2nc([C@@H]3CC[C@H]4CCC(=O)N4C3)n3ccnc(N)c23)cc1)c1cccc(OC(F)(F)F)c1
c: CC(O)(c1cccc(C(F)(F)F)c1)c1ccc(-c2nc([C@@H]3CC[C@@H]4N(C3)C(=O)CC4(C)C)n3ccnc(N)c23)c(F)c1 (stereo partly shown) [Example 191]
d: CC(O)(c1ccc(-c2nc([C@@H]3CC[C@H]4CCC(=O)N4C3)n3ccnc(N)c23)cc1)c1cc(C(F)(F)F)ccc1F (stereo partly shown) [Example 145]
e: CC(O)(c1ccc(-c2nc([C@@H]3CC[C@H]4CCC(=O)N4C3)n3ccnc(N)c23)cc1)c1ccc(C(F)(F)F)cc1 (stereo partly shown)
Query: Sort the 5 compounds by IC50; largest first, smallest last. Put the labels in the requested order and list them out.
Response: d, e, a, c, b

I: Cc1cc([C@@](C)(O)c2cccc(C(F)(F)F)c2)ccc1-c1nc([C@@H]2CC[C@H]3CCC(=O)N3C2)n2ccnc(N)c12
II: C[C@@](O)(c1ccc(-c2nc([C@@H]3CC[C@H]4CCC(=O)N4C3)n3ccnc(N)c23)cc1)c1cncc(C(F)(F)F)c1
Query: Please tell me which of the two, I or II , has the higher reported IC50 value. Reply briefly: the label of your chosen item.
Response: I
(I: 1000 nM, II: 87.6 nM)

A: C[C@@](O)(c1ccc(-c2nc([C@@H]3CC[C@H]4COCC(=O)N4C3)n3c(Cl)cnc(N)c23)cc1)c1cccc(C(F)(F)F)c1
B: CN1CC[C@@H]2CC[C@@H](c3nc(-c4ccc([C@@](C)(O)c5cccc(C(F)(F)F)c5)cc4)c4c(N)nccn34)CN2C1=O
C: CC(O)(c1cccc(C(F)(F)F)c1)c1ccc(-c2nc([C@@H]3CC[C@H]4CCC(=O)N4C3)n3c(Cl)cnc(N)c23)c(F)c1 (stereo partly shown) [Example 190]
Query: Write the entries in order, lowest recorded IC50 first. Put the labels in the requested order and list them out.
Response: B, A, C

a: COc1cc([C@](C)(O)c2cccc(C(F)(F)F)c2)ccc1-c1nc([C@@H]2CC[C@H]3CCC(=O)N3C2)n2ccnc(N)c12
b: CCC(O)(c1ccc(-c2nc([C@@H]3CC[C@H]4CCC(=O)N4C3)n3ccnc(N)c23)cc1)c1cccc(C(F)(F)F)c1 (stereo partly shown) [Example 61]
c: C[C@@](O)(c1ccc(-c2nc([C@@H]3CC[C@@H]4[C@@H](C(F)(F)F)CC(=O)N4C3)n3ccnc(N)c23)cc1)c1cccc(C(F)(F)F)c1
d: C[C@@](O)(c1ccc(-c2nc([C@@H]3CC[C@H]4CCC(=O)N4C3)n3ccnc(N)c23)cc1)c1cccc(C(F)F)c1
e: CC(O)(c1cccc(C(F)(F)F)c1)c1ccc(-c2nc([C@@H]3CC[C@H]4CCC(=O)N4C3)n3c(F)cnc(N)c23)c(F)c1 (stereo partly shown) [Example 185]
Query: Write the entries in order, lowest recorded IC50 first. Put the labels in the requested order and list them out.
Response: d, a, e, b, c

1: C[C@@](O)(c1ccc(-c2nc([C@@H]3CC[C@H]4CCC(=O)N4C3)n3c(Cl)cnc(N)c23)cc1)c1cccc(C(F)(F)F)c1
2: CN1CC[C@@H]2CC[C@@H](c3nc(-c4ccc([C@](C)(O)c5cccc(C(F)(F)F)c5)cc4)c4c(N)nccn34)CN2C1=O
Query: Field: lower IC50 | Options: 1 / 2 Reply briefly: the label of your chosen item.
Response: 1

---

test system: adenosine uptake into HeLa cells; test: [3H]Adenosine uptake assay in HeLa cells; type: cell-based; conditions: Homo sapiens, HeLa, [3H]adenosine accumulation in HeLa cells; compound range 10 μM to 0.032 nM; read-out: ADU inhibition IC50
pIC50: −log10 of the molar value.
Measurement name: pIC50

[
  {
    "Molecule": "CC(C)(c1cccc([C@](C)(O)c2ccc(-c3nc([C@@H]4CC[C@H]5CCC(=O)N5C4)n4ccnc(N)c34)cc2)c1)C(F)(F)F",
    "pIC50": 5.77
  },
  {
    "Molecule": "C[C@@](O)(c1cccc(C(F)(F)F)c1)c1ccc(-c2nc([C@@H]3CC[C@H]4CCC(=O)N4C3)n3ccnc(N)c23)c(C(F)F)c1",
    "pIC50": 5.76
  },
  {
    "Molecule": "C[C@@](O)(c1ccc(-c2nc([C@@H]3CC[C@H]4CCC(=O)N4C3)n3c(Cl)cnc(N)c23)cc1)c1cccc(CC(F)(F)F)c1",
    "pIC50": 5.71
  },
  {
    "Molecule": "CC(C)(C)c1cccc([C@@](C)(O)c2ccc(-c3nc([C@@H]4CC[C@H]5CCC(=O)N5C4)n4ccnc(N)c34)cc2)c1",
    "pIC50": 6.22
  },
  {
    "Molecule": "CN1CC[C@@H]2CC[C@@H](c3nc(-c4ccc([C@@](C)(O)c5cccc(C(F)(F)F)c5)cc4)c4c(N)nccn34)CN2C1=O",
    "pIC50": 6.05
  }
]

P: CC1(C)C[C@@H]2CC[C@@H](c3nc(-c4ccc([C@@](C)(O)c5cccc(C(F)F)c5)cc4)c4c(N)nccn34)CN2C1=O
Q: C[C@@](O)(c1ccc(-c2nc([C@@H]3CC[C@H]4COCC(=O)N4C3)n3c(Cl)cnc(N)c23)cc1)c1cccc(C(F)(F)F)c1
Query: Field: lower pIC50 | Options: P / Q Reply briefly: the label of your chosen item.
Response: P

1: Nc1nccn2c([C@@H]3CC[C@H]4CCC(=O)N4C3)nc(-c3ccc(C(O)(c4ccccc4)C(F)(F)F)cc3)c12 (stereo partly shown)
2: CCOc1cc([C@@](C)(O)c2cccc(C(F)(F)F)c2)ccc1-c1nc([C@@H]2CC[C@H]3CCC(=O)N3C2)n2c(F)cnc(N)c12
3: CCOc1cc(C(O)(c2cccc(C(F)(F)F)c2)C(F)(F)F)ccc1-c1nc([C@@H]2CC[C@H]3CCC(=O)N3C2)n2ccnc(N)c12 (stereo partly shown)
4: C[C@](O)(c1ccc(-c2nc([C@@H]3CC[C@H]4CCC(=O)N4C3)n3ccnc(N)c23)cc1)c1cccc(-n2ccnc2)c1
Query: Sort the 4 molecules by pIC50; largest first, smallest last. Put the labels in the requested order and list them out.
Response: 1, 4, 3, 2
(1: 5.91, 4: 5.71, 3: 5.51, 2: 5.23)
